tested on: 786-O; test: GI50 of drug in presence of dasatinib; higher = less potent; settings: treatment: drug + dasatinib (fixed dose, not stated); 5 days
observable: GI50 of drug

Example molecules with recorded GI50 of drug:
molecule="NC(=O)c1ccc(N(C(N)=O)c2c(F)cccc2F)nc1-c1ccc(F)cc1F [VX-702] + Cc1nc(Nc2ncc(C(=O)Nc3c(C)cccc3Cl)s2)cc(N2CCN(CCO)CC2)n1 [dasatinib]" system=786-O recorded_result="> 10000 nM"
molecule="COc1ccc2c(OCc3nnc4ccc(-c5ccccc5)nn34)ccnc2c1 [AMG-208] + Cc1nc(Nc2ncc(C(=O)Nc3c(C)cccc3Cl)s2)cc(N2CCN(CCO)CC2)n1 [dasatinib]" system=786-O recorded_result="> 10000 nM"
molecule="CS(=O)(=O)O.Cc1ccc(NC(=O)c2ccc(CN3CCN(C)CC3)cc2)cc1Nc1nccc(-c2cccnc2)n1 [Imatinib Mesylate] + Cc1nc(Nc2ncc(C(=O)Nc3c(C)cccc3Cl)s2)cc(N2CCN(CCO)CC2)n1 [dasatinib]" system=786-O recorded_result="> 10000 nM"
molecule="CCOC(=O)C1=C(N)Oc2ccc(Br)cc2[C@H]1[C@H](C#N)C(=O)OCC [HA14-1] + Cc1nc(Nc2ncc(C(=O)Nc3c(C)cccc3Cl)s2)cc(N2CCN(CCO)CC2)n1 [dasatinib]" system=786-O recorded_result="> 10000 nM"
molecule="CO[C@H]1C[C@@H]2CC[C@@H](C)[C@@](O)(O2)C(=O)C(=O)N2CCCC[C@H]2C(=O)O[C@H]([C@H](C)C[C@@H]2CC[C@@H](O)[C@H](OC)C2)CC(=O)[C@H](C)/C=C(\\C)[C@@H](O)[C@@H](OC)C(=O)[C@H](C)C[C@H](C)/C=C/C=C/C=C/1C [Rapamycin (Sirolimus)] + Cc1nc(Nc2ncc(C(=O)Nc3c(C)cccc3Cl)s2)cc(N2CCN(CCO)CC2)n1 [dasatinib]" system=786-O recorded_result="< 3 nM"
molecule="COc1cc(N2CCC(N3CCN(C)CC3)CC2)ccc1Nc1ncc(Cl)c(Nc2ccccc2S(=O)(=O)C(C)C)n1 [TAE684 (NVP-TAE684)] + Cc1nc(Nc2ncc(C(=O)Nc3c(C)cccc3Cl)s2)cc(N2CCN(CCO)CC2)n1 [dasatinib]" system=786-O recorded_result="< 3 nM"
molecule="Cc1[nH]c(/C=C2\\C(=O)Nc3ccccc32)c(C)c1CCC(=O)O [TSU-68] + Cc1nc(Nc2ncc(C(=O)Nc3c(C)cccc3Cl)s2)cc(N2CCN(CCO)CC2)n1 [dasatinib]" system=786-O recorded_result="> 10000 nM"
molecule="Nc1cc(C(F)(F)F)c(-c2cc(N3CCOCC3)nc(N3CCOCC3)n2)cn1 [BKM120 (NVP-BKM120)] + Cc1nc(Nc2ncc(C(=O)Nc3c(C)cccc3Cl)s2)cc(N2CCN(CCO)CC2)n1 [dasatinib]" system=786-O recorded_result="81.7 nM"

Let me check: CCC(=O)N1CCN(c2ccc(-n3c(=O)ccc4cnc5ccc(-c6cnc7ccccc7c6)cc5c43)cc2C(F)(F)F)CC1 [Torin 1] + Cc1nc(Nc2ncc(C(=O)Nc3c(C)cccc3Cl)s2)cc(N2CCN(CCO)CC2)n1 [dasatinib] , system 786-O, measured GI50 of drug is 17.4 nM

Let me check: CN1CCN(C2CCN(C(=O)Nc3cc(Oc4ccc(NC(=O)C5(C(=O)Nc6ccc(F)cc6)CC5)c(F)c4)ccn3)CC2)CC1 [Golvatinib (E7050)] + Cc1nc(Nc2ncc(C(=O)Nc3c(C)cccc3Cl)s2)cc(N2CCN(CCO)CC2)n1 [dasatinib] , system 786-O, measured GI50 of drug is 434 nM

Hello, the source for this data is the supplement of paper PMC8149375, in case you need it.
